Study target: T1, 4H348-bH
T1 chain: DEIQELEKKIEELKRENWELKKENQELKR
Assay protocol: two-hybrid library CCNG1;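 also: natural log of median RNA to DNA barcode read ratio; higher means stronger binding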
Decide using interaction score alone. Strictly below -0.5: 1.0. Equal to or above -0.5: 0.0.

[in] Please determine if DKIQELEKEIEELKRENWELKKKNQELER [4H2143-bH] is below -0.5 in terms of interaction score.
[out] 0.0

[in] Please determine if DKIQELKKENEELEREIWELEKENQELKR [4H2692-bH] is below -0.5 in terms of interaction score.
[out] 1.0

[in] Please determine if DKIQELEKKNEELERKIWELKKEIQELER [4H2473-bH] is below -0.5 in terms of interaction score.
[out] 1.0

[in] Please determine if DKIQELKKKIEELERENWELEKKNQELER [4H2839-bH] is below -0.5 in terms of interaction score.
[out] 0.0

[in] Please determine if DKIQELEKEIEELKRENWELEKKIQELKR [4H2134-bH] is below -0.5 in terms of interaction score.
[out] 1.0

[in] Please determine if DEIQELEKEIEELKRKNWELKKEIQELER [4H121-bH] is below -0.5 in terms of interaction score.
[out] 1.0

[in] Please determine if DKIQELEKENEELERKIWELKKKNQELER [4H2223-bH] is below -0.5 in terms of interaction score.
[out] 1.0
